Cited source for all entries: PubChem BioAssay (NCI)

# Test system: 786-0 renal
# experimentalProtocol: NCI-60 one-dose screen, 48 h
# assayConditions: 10 µM unless noted
# Procedure: Cells are grown in 96 well plates and exposed to the test compound for 48 hours. Compounds are tested at a single concentration, which is 10^-5 M for most compounds. The reported endpoint is percent growth (GI% or GIPRCNT), where numbers from 0 - 100% represent growth inhibition, and numbers from -100% - 0 represent cell death. For example, a value of 40 represents 60% growth inhibition. A value of 0 means no net growth occurred over the course of the experiment. […]
Compounds without any hit were thinned out: in the full panel of roughly 83,000, 20% have a hit. Calls of active or inactive are those of the source. Rule for the calls: active = growth percent below 10; inactive = the rest.
Possible outcomes: Yes (active), No (inactive)

molecule	measuredTarget	class
COc1ccc(C2CC(c3ccc4c(c3)OCO4)=Nc3c(N)ncnc3N2)cc1 (stereo not drawn)	786-0 renal	No
O=C(Nc1cccnc1Nc1ccc(Cl)cc1)c1cn(Cc2ccc(F)cc2)nn1	786-0 renal	No
COc1cc(-c2nc(NC(C)=O)sc2-c2ccnc(NCCNS(=O)(=O)c3ccccc3)n2)ccc1Cl	786-0 renal	No
N#Cc1c(N2CCOCC2)nc(=S)[nH]c1-c1ccccc1	786-0 renal	No
COc1ccc(C2=CN3CC=CCC3CC2=O)cc1 (stereo not drawn)	786-0 renal	No
COc1cc2c3c(n(CCCCNCCCn4c5c(c6cc(OC)c(OC)cc6c4=O)C(=O)c4cc6c(cc4-5)OCO6)c(=O)c2cc1OC)-c1cc2c(cc1C3=O)OCO2	786-0 renal	No
COc1ccc2[nH]cc(-c3nc(-c4cn(C)c5ccncc45)cs3)c2c1	786-0 renal	No
Clc1ccc(-c2nc(-c3c[nH]c4ncccc34)cs2)cc1	786-0 renal	No
C#CC#CC#CC#CC#CC#CC#CC#CCC1OCC(COC(=O)O[C@@H](C(=O)O[C@H]2C[C@@]3(O)[C@@H](OC(=O)c4ccccc4)[C@@H]4[C@]5(OC(C)=O)CO[C@@H]5C[C@H](O)[C@@]4(C)C(=O)[C@H](OC(C)=O)C(=C2C)C3(C)C)[C@@H](NC(=O)c2ccccc2)c2ccccc2)O1 (stereo partly drawn)	786-0 renal	No
COc1cc(/C=C\c2cc(/C=C\c3ccc(O)c(OC)c3)n(C(=O)CNc3ccc(Cl)cc3)n2)ccc1O	786-0 renal	No
COc1ccc2cc(Cn3cc[n+](Cc4ccc5ccccc5c4)c3)ccc2c1	786-0 renal	No
Fc1ccc(COc2ccc(Nc3ncnc4sc5c(c34)CCCC5)cc2)cc1	786-0 renal	No
Cc1ccc(C)c(-n2c(-c3ccc(Br)cc3)csc2=NC(=O)c2ccccc2F)c1	786-0 renal	No
Nc1c(C(=O)Nc2cccc3ncccc23)sc2nc3c(cc12)C(=O)CCC3	786-0 renal	No
O=C(Cn1nnc([N+](=O)[O-])n1)c1ccccc1	786-0 renal	No
NS(=O)(=O)c1ccc(N/C=C/C(=O)c2cc3ccccc3oc2=O)cc1	786-0 renal	No
C=C1C(=O)O[C@H]2[C@H]1CC/C(CNC(=O)c1cc3ccccc3[nH]1)=C\CC[C@@]1(C)O[C@@H]21	786-0 renal	Yes
CCn1cc(C2=C(c3cn(C)c4ncccc34)C(=O)NC2=O)c2cccnc21	786-0 renal	No
CCOC(=O)C1CCN(c2ccc(N3C[C@@H](CNCc4ccc(C(=N)N)cc4)OC3=O)cc2)CC1	786-0 renal	No
Cc1ccccc1CNc1c2ccccc2nc2ccccc12	786-0 renal	No
O=C(CCCCCCN1CC(=O)N2[C@@H](C3CCCCC3)c3[nH]c4ccccc4c3C[C@H]2C1=O)NO	786-0 renal	No
CCOC(=O)C/C(=N\Nc1cc(=O)[nH]c2ccc(Cl)cc12)C(=O)OCC	786-0 renal	No
Cc1ccc2nc(Cl)c(Cn3nnnc3SCc3ccccc3)cc2c1	786-0 renal	No
CCOC(=O)c1c(C)nc2c(c1N)CC(=O)N2Cc1cc(OC)c(OC)c(OC)c1	786-0 renal	No
CCN(CC)CCN(CCN(CC)CC)c1ccccc1	786-0 renal	No
CCCCCCC(=O)Nc1ncc(Cc2ccc(C)cc2)s1	786-0 renal	No
Cc1cc(C)c(-c2c(O)c(Br)c(-c3c(C)cc(C)c(Br)c3C)c(O)c2Br)c(C)c1Br	786-0 renal	No
Cc1cc(N2CCCCC2)nc(N2CCN(CC(=O)Nc3ccc4c(ccn4Cc4ccccc4)c3)CC2)n1	786-0 renal	No
Cc1nc2ccccc2c(/C=C/c2ccc(C(F)(F)F)cc2)c1C(=O)/C=C/c1ccccc1	786-0 renal	Yes
CC[C@@H](c1ccc2cc(OC)ccc2c1)C(C)(C)C(=O)F	786-0 renal	No
COc1ccc(C(C)=O)cc1S(N)(=O)=O	786-0 renal	No
CCCCCCCC/C=C\CCCCCCCCOc1ccc(CC(=O)NCC[N+](C)(C)C)cc1	786-0 renal	No
C=CC(=O)N1CCN(c2ccc3cccc(NC(=O)c4cnc(C)cn4)c3n2)CC1	786-0 renal	No
CCNC(=O)Oc1ccc(/C(=C(/C)Cc2ccc(OC)cc2)c2ccc(OCCN3CCCC3)cc2)cc1	786-0 renal	No
Cn1cc(-c2ccc3cc(-c4ccc(CC(=O)Nc5cc(C(C)(C)C)on5)cc4)cnc3c2)cn1	786-0 renal	Yes
O=C(c1ccc(F)c(Cl)c1)N1c2ccccc2Sc2ccccc21	786-0 renal	No
C[Se]C(=O)CC1=C2C=C(F)C=CC2/C(=C\c2ccc(S(C)=O)cc2)C1C (stereo not drawn)	786-0 renal	Yes
O=C(CSc1nnc2sc(Nc3cccc(Cl)c3)nn12)c1ccc(F)cc1	786-0 renal	No

----------
# Tested on: NCI-H322M lung
# experimentalProtocol: NCI-60 one-dose screen, 48 h
# assayConditions: 10 µM unless noted
About 83,000 compounds went through this panel and 20% of them were active in at least one assay; those are over-represented in the sample as a whole. Activity calls are given as the source filed them. The calls were made as follows: active = growth percent below 10; inactive = the rest.
Possible outcomes: active, inactive

compound	class
Cc1c(N2CN3C[C@H](C)N4CN(c5c(C)n(C)n(-c6ccccc6)c5=O)CN5C[C@@H](C)N(C2)C3C54)c(=O)n(-c2ccccc2)n1C (stereo partly drawn)	inactive
N=C(N)c1ccc(-c2ccc(-c3ccc(Cl)cc3Cl)s2)cc1F	active
Cc1cc2oc(=O)cc(CP(=O)(O)O)c2cc1O	inactive
N#Cc1nc(-c2ccc(F)cc2)oc1S(=O)(=O)N1CCN(c2ccc(F)cc2)CC1	inactive
CC(=O)N/C(=C1/OC(C(O)C(O)C(O)CO)CN1C)[P+](c1ccccc1)(c1ccccc1)c1ccccc1 (stereo not drawn)	inactive
Cc1ncc(C(=O)Nc2ccc(CN3CCN(C)CC3)c(C(F)(F)F)c2)cc1C#Cc1cnc(N)c2cnccc12	inactive
O=c1ccc2nc(C(F)(F)F)nn(-c3ccccc3)c-2c1	inactive
COc1ccc(NC(=O)c2sc3nc4c(cc3c2N)CCCC4)cc1	inactive
CCc1ccc(CCC(=O)Nc2ncc(Cc3ccc(Cl)cc3)s2)o1	inactive
CCC(CC)(N(CC(=O)O)CC(=O)O)C(CC)(CC)N(CC(=O)O)CC(=O)O	inactive
CCSC1=CC(=O)c2ccccc2C1=O	inactive
CSCCC(NC(=O)c1ccccc1)C(=O)N/N=C1\S/C(=C/c2ccc(Cl)cc2)C(=O)N1C (stereo not drawn)	inactive
COc1cccc(/C=C/C(=O)c2cc3c(N)c(C(=O)Nc4cccc(Cl)c4C)sc3nc2C)c1	active
O=C(Nc1nc(C(=O)N2CCN(C(c3ccccc3)c3ccccc3)CC2)cs1)c1ccc(NC2CCCCC2)c([N+](=O)[O-])c1	inactive
COc1ccc(C(c2cc(OC)c(OC)c(OC)c2)N2CCCC2)cc1 (stereo not drawn)	inactive
N=c1c2c(=N)n3c(nc2nc2n1-c1ccccc1Sc1ccccc1-2)sc1cc(Cl)ccc13	inactive
O=C(/C=C/C12c3ccccc3C(c3ccccc31)C1C(=O)NC(=O)C12)c1ccc(F)cc1 (stereo not drawn)	active
O=C(N/N=C/c1ccc([N+](=O)[O-])cc1)c1ccc2nc(-c3ccc(Cl)cc3)[nH]c2c1	inactive
CC1(C)CC[C@]2(C(=O)O)CC[C@]3(C)C(=CC[C@@H]4[C@@]5(C)C[C@@H](Cc6cn([C@@H]7O[C@H](CO)[C@@H](O)[C@H](O)[C@H]7O)nn6)[C@H](O)C(C)(C)[C@@H]5CC[C@]43C)[C@@H]2C1	inactive
Oc1c(I)cc(-c2nc3ccccc3s2)cc1CN(Cc1ccccn1)Cc1ccccn1	inactive
COc1ccc(-c2cn(-c3ccc(Cl)cc3)c(SCC(=O)c3ccc([N+](=O)[O-])cc3)n2)cc1	inactive
O=C1OCC2=C1C(c1cccc(C(F)(F)F)c1)c1cc3c(cc1N2CCO)OCO3 (stereo not drawn)	inactive
COc1cccc(NC(=O)c2cccc(C3CCc4c(cc(OC)c(OC)c4OC)O3)c2)c1 (stereo not drawn)	inactive
CC1(C)C2CC=C(/C=N/NC(=O)C3CCC(=O)N3)C1C2 (stereo not drawn)	inactive
Cn1cc(-c2csc(-c3cn(C)c4ccc(Br)cc34)n2)c2cnccc21	active
Cc1cc(F)ccc1S(=O)(=O)Nc1cc(-c2c(O)ccc3ccccc23)c(O)c2ccccc12	inactive
CCOC(=O)c1c(NC(=O)c2ccc(OC)cc2)sc2c(CN(C)C)c(O)ccc12	inactive
CCn1cc(C2=C(c3cn(C)c4ncccc34)C(=O)NC2=O)c2cccnc21	inactive
Cc1c(Cl)cccc1C(=O)Nc1nc2c(s1)CN(C(=O)Nc1cccc(C(F)(F)F)c1)CC2	inactive
COc1cc(C(=O)C(=O)c2cc(OC)c(O)c(OC)c2)cc(OC)c1O	inactive
Cc1ccc2[nH]c(=O)c3c(c2c1)OC(N)=C(C#N)C31C(=O)c2cccc3cccc1c23 (stereo not drawn)	inactive
O=C1/C(=C/c2ccccc2)CN(C(=O)c2cccnc2)C/C1=C\c1ccccc1	inactive
COc1cc(-c2nc3occn3c2-c2ccnc(NCCCNS(=O)(=O)c3ccccc3)n2)ccc1F	inactive
Nc1c(C(=O)Nc2ccncc2)sc2nc3c(cc12)CCCCC3	inactive
O=C1/C(=C/c2cccc([N+](=O)[O-])c2)COc2ccc(O)cc21	inactive
Cc1ccc(C(=O)c2ccc(CC(=O)N/N=C/c3ccc(O)cc3O)n2C)cc1	inactive
CC1(C)OC(=O)C(=Cc2cccc(Br)c2)C(=O)O1	inactive
CCCCCCNc1nc(NCCCCCC)c2[nH]c(NCCCCCC)nc2n1	active
